ASSAYED TARGET: T1, 4H406-AA
T1 chain: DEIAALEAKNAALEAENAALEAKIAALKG
METHOD: two-hybrid library CCmax;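 also: natural log of median RNA to DNA barcode read ratio; higher means stronger binding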
EXPERIMENTAL CONDITIONS: mean of both orientations
interaction score reference
MEASURED PROPERTY: interaction score

INSERT INTO measurements (binder, measured_property, reported_value) VALUES
  ('DENAALKAEIAALKAKNAALEAEIAALKG [4H1650-AA]', 'interaction score', -1.61),
  ('DKIAALKAENAALKAENAALEAKIAALKG [4H2774-AA]', 'interaction score', -0.207),
  ('DENAALKAKNAALEAEIAALKAEIAALKG [4H1930-AA]', 'interaction score', -1.92),
  ('DKIAALEAKIAALEAENAALKAEIAALKG [4H2330-AA]', 'interaction score', -0.544),
  ('DKIAALEAKIAALEAKIAALEAKNAALEG [4H2343-AA]', 'interaction score', -1.85);
